Attribute: pIC50
assayTarget: KAT-5 (Homo sapiens (Human))
Sequence (Q92993 other isoform, or with tags, fused parts or gaps): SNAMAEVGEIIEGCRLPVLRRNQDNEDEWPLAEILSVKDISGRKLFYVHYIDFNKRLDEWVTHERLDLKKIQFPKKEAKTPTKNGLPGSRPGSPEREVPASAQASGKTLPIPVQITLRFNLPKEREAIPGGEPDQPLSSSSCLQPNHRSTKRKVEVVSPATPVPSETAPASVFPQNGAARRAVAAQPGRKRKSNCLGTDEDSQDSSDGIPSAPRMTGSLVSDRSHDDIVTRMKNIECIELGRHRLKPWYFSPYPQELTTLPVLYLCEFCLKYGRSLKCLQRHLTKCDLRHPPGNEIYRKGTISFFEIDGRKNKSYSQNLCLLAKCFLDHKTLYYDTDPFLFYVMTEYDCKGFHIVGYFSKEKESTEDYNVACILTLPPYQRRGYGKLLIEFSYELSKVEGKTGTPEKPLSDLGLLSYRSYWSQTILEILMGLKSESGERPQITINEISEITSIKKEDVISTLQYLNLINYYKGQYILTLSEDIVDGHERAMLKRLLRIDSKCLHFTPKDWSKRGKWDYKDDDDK
methodSummary: KAT-5 biochemical inhibition assay (SAMDI mass spectrometry)
pIC50: −log10 of the molar value.
observable: pIC50

Cn1cnc(-c2cc(Cl)c(F)c(C(=O)NNS(=O)(=O)CC3(C)CCOCC3)c2)c1; > 5.00
Cn1cnc(-c2cc(Cl)c(F)c(C(=O)NNS(=O)(=O)CC3CCC(N)C3)c2)c1 (stereo not shown); 4.30 to 5.00
COCCNC(=O)N1CCCC(CS(=O)(=O)NNC(=O)c2cc(-c3cn(C)cn3)cc(Cl)c2F)C1 (stereo not shown); > 5.00
Cc1nc(-c2cc(Cl)c(F)c(C(=O)NNS(=O)(=O)CC3CCOCC3)c2)cn1C; 4.30 to 5.00
CCO[C@H]1CCC[C@H](CS(=O)(=O)NNC(=O)c2cc(-c3cn(C)cn3)cc(Cl)c2F)C1; > 5.00
CC(=O)N1CCCC(CS(=O)(=O)NNC(=O)c2cc(-c3cn(C)cn3)cc(Cl)c2F)C1 (stereo not shown); > 5.00
Cn1cnc(-c2cc(Cl)c(F)c(C(=O)NNS(=O)(=O)CC3CCCC(NC(=O)Cc4ccccc4)C3)c2)c1 (stereo not shown); > 5.00
Cn1cnc(-c2cc(Cl)c(F)c(C(=O)NNS(=O)(=O)CC3CCCC(F)(F)C3)c2)c1 (stereo not shown); > 5.00
CC1CCNCC1CS(=O)(=O)NNC(=O)c1cc(-c2cn(C)cn2)cc(Cl)c1F (stereo not shown); 4.30 to 5.00
COCCNC(=O)N1CCC(CS(=O)(=O)NNC(=O)c2cc(-c3cn(C)cn3)cc(Cl)c2F)C1 (stereo not shown); > 5.00
